- Tested on: SF-268
- Assay: NCI tumour cell line growth inhibition, 48 h
Activity calls are given as the source filed them. Cut-off read from the data, not from the text of the source: active = GI50 up to about 1.1 µM and inactive = higher.
Answer with one of the outcomes Y (active), N (inactive)

Look over these answered cases.
Entry smiles: C=CCOC(=O)N1c2ccc(O)cc2[C@@]23O[C@@]24[C@@H]1C#C/C=C\C#C[C@]3(O)C(=O)C[C@@H]4C
Group label: N

Entry smiles: CNC(=O)c1nn[nH]c1Sc1c([N+](=O)[O-])ncn1C
Group label: N

Entry smiles: COc1ccc2c(c1)[C@@H](NC(C)=O)CCc1cc(OC)c(OC)c(OC)c1-2
Group label: Y

Entry smiles: COc1ccccc1/[N+]([O-])=C/c1ccccc1OC(=S)S
Group label: N

Entry smiles: NC12CC3CC4C1CC1CC2C(C3)C4(N)C1
Group label: N

Field: outcome | Entry: O=C1c2ccccc2S[C@@H](O)[C@@H]2CCCN12
N

What classification did CC(=O)c1c(O)cc(O)c(-c2c(C)cc(O)c3c2C(=O)c2cccc(O)c2C3=O)c1O end up with in this test?
N

How did this test come out for COc1cc2c(cc1O)Cc1c-2[n+](C)cc2cc(OC)c(OC)cc12 ?
Y

For CCN(CC)CCC(=O)c1ccc(Oc2ccc(C)cc2)cc1 , what call appears in the results of this test?
N

How did this test come out for O=C(O)c1ccccc1NC(=S)c1ccccc1 ?
N

Which result was noted for this compound in the test: CCOC(=O)NN(C(=O)OCC)C(C(=O)c1ccccc1)N(NC(=O)OCC)C(=O)OCC
N

----------
- Test system: NCI-H226
- Assay: NCI tumour cell line growth inhibition, 48 h
Activity calls are given as the source filed them. Rule as the data show it: active = GI50 up to about 1.1 µM and inactive = higher.
Parameter measured: GI50

Compound: O=C1c2ccccc2-c2c1c(-c1ccccc1)c1n2C2(C(=O)c3ccccc3C2=O)C2C(=O)N(c3ccccc3)C(=O)C12 (centres undefined)
Target system: NCI-H226
GI50: 19.3 µM (inactive)
//
Compound: C[C@@H]1C[C@@]2(O[C@@H]2C)C(=O)O[C@@H]2CCN3CC=C(COC(=O)[C@]1(C)O)[C@H]23
Target system: NCI-H226
GI50: > 100 µM (inactive)
//
Compound: COc1ccc(NC=O)c(C(O)CCNC(C)=O)c1 (centres undefined)
Target system: NCI-H226
GI50: > 100 µM (inactive)

Please examine the following record next.
# get_value(readout='GI50', item= CN(C)CCNc1ncnc2nc(-c3ccccc3)c(-c3ccccc3)nc12 )
> 100 µM (inactive)

----------
- Tested on: OVCAR-8
- Assay: NCI tumour cell line growth inhibition, 48 h
Active and inactive are the calls of the source. Cut-off read from the data, not from the text of the source: active = GI50 up to about 1.1 µM and inactive = higher.
A correct response names exactly one class from active, inactive

Compound: Cc1ccc(S(=O)(=O)NNCNC(=O)c2ccccc2)cc1
Group label: inactive
//
Compound: CCOc1ccc2c(ccc(/C=C/c3cc(C)c4cccnc4c3O)[n+]2C)c1
Group label: active
//
Compound: CCCc1c[nH]c(-c2ccc(-c3cc(CCC)c(C=O)[nH]3)s2)c1
Group label: inactive
//
Compound: CCOC(=O)c1c(NS(=O)(=O)c2ccccc2)sc2c1CCCC2
Group label: inactive

Would you kindly look at the next entry?
Record lookup: outcome of this test for O=C(O)CCO/N=C1/C(=C2/C(=O)Nc3ccccc32)Nc2ccccc21 ?
inactive

----------
- Tested on: NCI-H23
- Assay: NCI tumour cell line growth inhibition, 48 h
Activity calls are given as the source filed them. Rule as the data show it: active = GI50 up to about 1.1 µM and inactive = higher.
The reply should name one outcome from active, inactive

Record excerpt, results attached:
Compound: O=c1[nH]nc(N/N=C\c2ccc(Cl)cc2)c2ccccc12
Group label: inactive
//
Compound: CCOC(=O)CC(=O)N(c1ccc(OC)cc1)C(C(=O)OC)c1ccccc1 (configuration not stated)
Group label: inactive
//
Compound: CSc1nc2c(nc(N)n2C2OC(CO)C(O)C(O)C2O)c(=O)[nH]1 (configuration not stated)
Group label: inactive
//
Compound: COc1cc(C(O)c2ccc3c(c2)OCO3)cc(OC)c1OC (configuration not stated)
Group label: inactive

I'd appreciate the recorded outcome for NC(=O)/C=c1/c2ccccc2n2nc3ccccc3c12 from this test.
inactive
